- METHOD: yeast display, Sf9 membrane polyspecificity reagent, FACS + sequencing; frameworks hold sequencing errors
OBSERVED PROPERTY: polyreactivity (PSR sort gate)

CHAIN SEQUENCE	RESULT
QVQLVESGGGLVLAGGSLRLSCAASGRIYVFYAMGWYRQAPGKEREFVATISYSGDTTYYADSVKGRFTISRDNAKNTVYLQMNSLTPEDTAVYYCAADQVPSYYYVPLGYDSWGQGTQVTVSS	low polyreactivity
QLQLVESGGGLVQAGGSLRLSCAASGRTFFKYVMGWYRQAPGKERELVAAISYRSGSTYYADSVKGRFTISRDNAKNTVYLQMNSLKPEDTAVYYCAKEPPPVKGDYWGQGTQVTVSS	low polyreactivity
